system: TK-10 renal; experiment: NCI tumour cell line growth inhibition, 48 h; in the data active means GI50 below about 0.43 µM; inactive means the rest
Classes used: 1 = active, -1 = inactive

| molecule | classification |
| --- | --- |
| Cn1cc(C2=C(c3c[nH]c4ccccc34)C(=O)NC2=O)c2ccccc21 | 1 |
| NC(=O)c1ccc(Oc2nccc(-c3c(-c4ccc(F)cc4)ncn3C3CCNCC3)n2)cc1 | -1 |
| [N-]=[N+]=NCCCn1c2c(c3ccc([N+](=O)[O-])cc3c1=O)C(=O)c1cc(Br)ccc1-2 | -1 |
| CS(=O)(=O)Nc1cccc(-c2ccc3ncnc(Nc4ccc(F)c(Cl)c4)c3c2)c1 | 1 |
| CCCOC(=O)c1c(C)n(C)c2scc[n+]12 | -1 |
| CC/C(Cc1ccccc1)=C(\c1ccc(OCCN2CCCC2)cc1)c1ccc(OC(=O)NCc2ccccc2)cc1 | -1 |
| O=C1CSC(c2ccccc2Cl)N1c1nnc(Cn2cnnc2)o1 (stereo unspecified) | -1 |
| COc1ccccc1S(=O)(=O)Nc1ccc2c3c(cc(CCC(=O)NCCCCNc4cccc5c4C(=O)N(C4CCC(=O)NC4=O)C5=O)cc13)C(=O)N2C (stereo unspecified) | -1 |
| COC(=O)c1c(-c2cccs2)oc(-c2cccs2)c1C(=O)OC | -1 |
| COc1cc(OC)cc(C2C3=C(COC3=O)Nc3cc(OC)ccc32)c1 (stereo unspecified) | -1 |
| COc1ccccc1C1C(C#N)=C(N)Oc2n[nH]c(C)c21 (stereo unspecified) | -1 |
